# Settings: 333.15 K; 50000 kPa; Liquid; Vibrating wire viscometry
Quantity Measured: viscosity (mPa·s)

Compound | viscosity, mPa·s
CC(C)CC(C)(C)C [2,2,4-trimethylpentane] | 0.579

P = CCCCCCC [heptane]
Q = CCCCCCCCCCCC [dodecane]
(Q) Smaller viscosity value? Options are P and Q Answer format: the label of the selected item.
(A) P
(P: 0.4355 mPa·s, Q: 1.321 mPa·s)

* * *

# Settings: 293.15 K; 30000 kPa; Liquid; Vibrating wire viscometry
Quantity Measured: viscosity (mPa·s)

Molecule | viscosity [mPa·s]
CCCCCCC [heptane] | 0.5459

P = Cc1ccc(C)c(C)c1 [1,2,4-trimethylbenzene]
Q = CC(C)CC(C)(C)C [2,2,4-trimethylpentane]
R = CCCCCCCCCCCC [dodecane]
(Q) Highest viscosity first, then in falling order down to the smallest. Form entry: labels listed in requested order.
(A) R, P, Q
